# Relative cAMP EC50 values compiled below
- Study target: human glucagon receptor (human) (UniProt P47871)
- Sequence (P47871 26-477): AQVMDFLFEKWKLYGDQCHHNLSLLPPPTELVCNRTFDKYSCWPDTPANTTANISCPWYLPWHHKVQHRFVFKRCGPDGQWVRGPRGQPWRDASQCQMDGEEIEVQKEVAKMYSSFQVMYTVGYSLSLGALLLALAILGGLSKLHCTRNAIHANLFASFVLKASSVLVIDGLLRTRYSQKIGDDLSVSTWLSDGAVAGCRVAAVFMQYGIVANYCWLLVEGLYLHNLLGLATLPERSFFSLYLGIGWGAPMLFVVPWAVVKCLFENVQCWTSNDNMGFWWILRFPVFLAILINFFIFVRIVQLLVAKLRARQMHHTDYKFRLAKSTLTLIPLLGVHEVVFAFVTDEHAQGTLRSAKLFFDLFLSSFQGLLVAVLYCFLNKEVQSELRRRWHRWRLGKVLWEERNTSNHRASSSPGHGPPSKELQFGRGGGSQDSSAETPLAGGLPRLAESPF
- Assay procedure: cell-based or functional assay
# number only, unit nM dropped from output

These recorded examples may help you get a feel for the data.
Binder	Relative cAMP EC50 / nM
YXQGTXTSDXSIXLDKKAQXAFIEYLEEGGPSSGEPPPS (synthetic construct; SITE 2: note = 2-Aminoisobutyric Acid; SITE 6: note = alpha-methyl-2-fluoro-L-phenylalanine; SITE 10: note = 3-(4-Pyridyl)-L-alanine; SITE 13: note = alpha-methyl-leucine; SITE 17: note = Lysine is chemically modified through conjugation of the epsilon-amino group of the Lysine) [Example 442]	5.66
YXQGTFTSDXSQXLDXKAQXAFIEXLIEXGPSSGAPPPSGSEE (non-natural residues; C18 diacid-γGlu-AEEA on Lys; C-terminal amide; synthetic construct; SITE 2: note = 2-Aminoisobutyric Acid; SITE 10: note = 3-(4-Pyridyl)-L-alanine; SITE 13: note = alpha-methyl-leucine; SITE 16: note = L-ornithine; SITE 17: note = Lysine is chemically modified through conjugation of the epsilon-amino group of the Lysine side chain with (2-[2-(2-) [Example 1108]	4.96

Next up:
// query Output Relative cAMP EC50 of YXQGTFTSDFSQXLDKKAQXAFIEYLLEXGESSGAPPPSGS (synthetic construct; SITE 2: note = 2-Aminoisobutyric Acid; SITE 13: note = alpha-methyl-leucine; SITE 17: note = Lysine is chemically modified through conjugation of the epsilon-amino group of the Lysine side chain with (2-[2-(2-Amino-ethoxy)-ethoxy]-acetyl)2-(gamma-Glu)-CO-(CH2 )16-CO2H; SITE 20:) [Example 787]
// result 7.81
